target: Cyclin H (CCNH) (Homo sapiens, UniProt P51946); construct: purchased Sino Biological Inc. Lot; ME12NO2769 (a lot number; catalogue number not given); host or cells: E. coli; assay: Surface plasmon resonance (SPR) on BIAcore; settings: binding to CCNH, column pK, row KD (M)
Sequence (P51946 whole entry): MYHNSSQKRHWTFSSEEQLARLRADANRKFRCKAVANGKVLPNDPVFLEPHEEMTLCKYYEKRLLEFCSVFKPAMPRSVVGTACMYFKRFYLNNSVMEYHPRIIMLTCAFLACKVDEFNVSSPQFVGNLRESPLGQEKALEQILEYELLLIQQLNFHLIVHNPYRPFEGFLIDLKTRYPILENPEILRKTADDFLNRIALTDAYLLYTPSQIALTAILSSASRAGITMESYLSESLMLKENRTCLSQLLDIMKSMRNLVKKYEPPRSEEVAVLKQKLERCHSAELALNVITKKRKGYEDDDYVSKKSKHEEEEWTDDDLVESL
Ends that are not written are not given here.
MEASUREMENT NAME: Kd (M)
One number for each entry, in M.

Query block: Retrieve Kd measured for FKRIVQRIKDFLRNLVPRTES [Amp] and print it.
Result block: 6.26e-05
